- ASSAY EXPLANATION: small-molecule microarray binders of probe aCHRDL2, primary screen, biochemical, biotinylated probe, 635/667 nm fluorescence (AID 1100)
- ASSAY CONTEXT: higher = more signal
Parameter threshold = -0.4. Response is True when composite z-score meets or exceeds it, else False.

Say whether COc1ccc(-c2cnnc(CCCn3ccnc3-c3ccccc3)n2)cc1 shows composite z-score of -0.4 or more.
False

And the next one, CON(C)C(=O)c1nnc2c(n1)[nH]c1ccccc12 ?
True

And the next one, COC(=O)[C@H](C)NC(=O)CCC1CC(OC(=O)NCc2cccc3ccccc23)CC2(CCCC(COC(=O)NCCCN3CCCC3=O)O2)O1 (stereo partly drawn) ?
True

And the next one, COC(=O)[C@H](C)NC(=O)CCC1CC(OC(=O)NCc2cccc3ccccc23)CC2(CCCC(COC(=O)NCCOc3ccccc3)O2)O1 (stereo partly drawn) ?
False

And the next one, CCOC(=O)CCN1C(=O)[C@H]2[C@H]3[C@H](O)[C@H](O)CC(=NNC(=O)OCc4ccc(OC)cc4)[C@H]3CC[C@H]2C1=O ?
True

And the next one, O=C1[C@H]2CCn3c(=O)n(-c4ccccc4)c(=O)n3[C@H]2[C@H](O)[C@@H]2O[C@H]12 ?
False

And the next one, O=C1C=C[C@@H](O)[C@@H]2[C@@H]3C(=O)N(Cc4ccc5c(c4)OCO5)C(=O)[C@@H]3CC[C@@H]12 ?
False
